# measurementProtocol: Safety study in healthy volunteers: pharmacodynamic parameters (plasma cGMP)
# Assay type: in vivo, human
# testContext: human, in vivo, 1 ug/kg, mean ± SD, read-out: t½ (converted)
Positions of bridges follow the written chain, without caps; N, C: chain ends. Non-standard residues stand in square brackets, D forms with d. Residues, ends and D or L forms follow the SMILES beside them. *: point of attachment. X1 = N=C(N)NCCC[C@H]1C(=O)N[C@@H](C(N)=O)CN1*; dNle = CCCC[C@@H](N)C(=O)O; Heptanoyl = CCCCCCC(=O)*
parameterMeasured: half-life (h)
Kindly provide the numeric value in h only, without the unit symbol.

INPUT: Consider the molecule shown here: CCCCCCC(=O)N[C@H]1CSSC[C@@H](C(=O)N[C@@H](Cc2ccc(O)cc2)C(=O)N2C[C@H](C(N)=O)NC(=O)[C@@H]2CCCNC(=N)N)NC(=O)[C@H](CO)NC(=O)[C@H]([C@@H](C)CC)NC(=O)[C@H](CCCNC(=N)N)NC(=O)[C@H](CC(=O)O)NC(=O)[C@@H](CCCC)NC(=O)[C@H](CCCNC(=N)N)NC(=O)CNC(=O)[C@@H](C)NC(=O)[C@H](Cc2ccccc2)NC(=O)[C@H](Cc2c[nH]cn2)NC1=O [mimetic of formula IV] (Heptanoyl-CHF[dA]GR[dNle]DRISCY-X1; disulfide 1-12) What is its recorded half-life?
OUTPUT: 2.98
